The values you see were collected from patent US6420131B1.

assay system: Rat CYP2C6 (Rattus norvegicus)
Sequence (P05178 1-490): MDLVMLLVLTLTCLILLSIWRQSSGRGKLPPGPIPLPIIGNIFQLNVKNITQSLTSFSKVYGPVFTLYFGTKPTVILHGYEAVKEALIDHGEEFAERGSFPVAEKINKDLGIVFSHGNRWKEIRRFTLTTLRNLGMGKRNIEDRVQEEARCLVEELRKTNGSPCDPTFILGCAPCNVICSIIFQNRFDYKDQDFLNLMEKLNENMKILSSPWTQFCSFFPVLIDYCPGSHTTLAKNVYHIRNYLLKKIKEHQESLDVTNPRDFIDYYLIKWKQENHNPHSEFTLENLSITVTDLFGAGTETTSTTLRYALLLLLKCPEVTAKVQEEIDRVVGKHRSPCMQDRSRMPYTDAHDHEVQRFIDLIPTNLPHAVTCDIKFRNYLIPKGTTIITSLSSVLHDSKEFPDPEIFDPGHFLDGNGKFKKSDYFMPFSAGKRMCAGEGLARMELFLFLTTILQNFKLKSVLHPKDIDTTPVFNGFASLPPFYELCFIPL
protocol text: Turnover of fluorometric substrates by rat CYP2C6
particulars: substrate uM: Ia 2, AMMC 20, CEC 40, MFC 50, BFC 50, BQ 40, BzRes 50; 30 min; enzyme 50 nM
Turnover Numbers, CYP2C6: recorded values
measure: Turnover Numbers, CYP2C6

smiles_string=O=C(OCc1ccccc1)c1ccccc1-c1c2ccc(=O)cc-2oc2cc(OCc3ccccc3)ccc12 measure="Turnover Numbers, CYP2C6" endpoint_result="0.021 pmol product/min/pmol enzyme"
smiles_string=COc1ccc2c(C(F)(F)F)cc(=O)oc2c1 measure="Turnover Numbers, CYP2C6" endpoint_result="11.5 pmol product/min/pmol enzyme"
smiles_string=c1ccc(COc2ccc3cccnc3c2)cc1 measure="Turnover Numbers, CYP2C6" endpoint_result="1.9 pmol product/min/pmol enzyme"
smiles_string=CCOc1ccc2cc(C#N)c(=O)oc2c1 measure="Turnover Numbers, CYP2C6" endpoint_result="2.14 pmol product/min/pmol enzyme"
smiles_string=O=c1ccc2nc3ccc(OCc4ccccc4)cc3oc-2c1 measure="Turnover Numbers, CYP2C6" endpoint_result="0.02 pmol product/min/pmol enzyme"
smiles_string=O=c1cc(C(F)(F)F)c2ccc(OCc3ccccc3)cc2o1 measure="Turnover Numbers, CYP2C6" endpoint_result="2.62 pmol product/min/pmol enzyme"

* * *

assay system: Rat CYP2C11 (Rattus norvegicus)
Sequence (P08683 1-500): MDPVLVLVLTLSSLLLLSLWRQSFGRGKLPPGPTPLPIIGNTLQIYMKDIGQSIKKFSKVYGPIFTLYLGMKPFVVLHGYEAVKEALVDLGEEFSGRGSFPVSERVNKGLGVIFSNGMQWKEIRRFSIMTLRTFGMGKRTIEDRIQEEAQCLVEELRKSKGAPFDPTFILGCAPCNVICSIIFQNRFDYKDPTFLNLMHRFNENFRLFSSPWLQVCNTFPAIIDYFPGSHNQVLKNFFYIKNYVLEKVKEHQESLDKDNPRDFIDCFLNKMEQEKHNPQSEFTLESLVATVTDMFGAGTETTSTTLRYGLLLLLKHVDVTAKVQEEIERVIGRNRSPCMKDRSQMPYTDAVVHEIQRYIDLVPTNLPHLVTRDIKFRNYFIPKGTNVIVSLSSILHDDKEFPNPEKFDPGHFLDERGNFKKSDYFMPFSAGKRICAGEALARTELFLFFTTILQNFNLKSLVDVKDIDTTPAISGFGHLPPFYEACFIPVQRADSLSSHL
protocol text: Turnover of fluorometric substrates by rat CYP2C11
particulars: substrate uM: Ia 2, AMMC 20, CEC 40, MFC 50, BFC 50, BQ 40, BzRes 50; 30 min; enzyme 50 nM
measure: Turnover Numbers, CYP2C11

smiles_string=O=c1ccc2nc3ccc(OCc4ccccc4)cc3oc-2c1 assay_system="Rat CYP2C11 (Rattus norvegicus)" measure="Turnover Numbers, CYP2C11" endpoint_result="0.05 pmol product/min/pmol enzyme"
smiles_string=COc1ccc2c(C(F)(F)F)cc(=O)oc2c1 assay_system="Rat CYP2C11 (Rattus norvegicus)" measure="Turnover Numbers, CYP2C11" endpoint_result="5.57 pmol product/min/pmol enzyme"
smiles_string=CCOc1ccc2cc(C#N)c(=O)oc2c1 assay_system="Rat CYP2C11 (Rattus norvegicus)" measure="Turnover Numbers, CYP2C11" endpoint_result="0.55 pmol product/min/pmol enzyme"
smiles_string=O=c1cc(C(F)(F)F)c2ccc(OCc3ccccc3)cc2o1 assay_system="Rat CYP2C11 (Rattus norvegicus)" measure="Turnover Numbers, CYP2C11" endpoint_result="0.34 pmol product/min/pmol enzyme"
smiles_string=O=C(OCc1ccccc1)c1ccccc1-c1c2ccc(=O)cc-2oc2cc(OCc3ccccc3)ccc12 assay_system="Rat CYP2C11 (Rattus norvegicus)" measure="Turnover Numbers, CYP2C11" endpoint_result="0.065 pmol product/min/pmol enzyme"
